# measured on: T1, C-terminally FLAG-tagged human Gas6 recombinant protein (hGas6-F) (human, UniProt Q14393 31-678, gamma-carboxylated glutamic acid residues in the Gla domain (producer cells co-express rat VKOR and human GGCX); positions not given)
# T1 construct: also called human Gas6-F; human Gas6 protein
# T1 sequence: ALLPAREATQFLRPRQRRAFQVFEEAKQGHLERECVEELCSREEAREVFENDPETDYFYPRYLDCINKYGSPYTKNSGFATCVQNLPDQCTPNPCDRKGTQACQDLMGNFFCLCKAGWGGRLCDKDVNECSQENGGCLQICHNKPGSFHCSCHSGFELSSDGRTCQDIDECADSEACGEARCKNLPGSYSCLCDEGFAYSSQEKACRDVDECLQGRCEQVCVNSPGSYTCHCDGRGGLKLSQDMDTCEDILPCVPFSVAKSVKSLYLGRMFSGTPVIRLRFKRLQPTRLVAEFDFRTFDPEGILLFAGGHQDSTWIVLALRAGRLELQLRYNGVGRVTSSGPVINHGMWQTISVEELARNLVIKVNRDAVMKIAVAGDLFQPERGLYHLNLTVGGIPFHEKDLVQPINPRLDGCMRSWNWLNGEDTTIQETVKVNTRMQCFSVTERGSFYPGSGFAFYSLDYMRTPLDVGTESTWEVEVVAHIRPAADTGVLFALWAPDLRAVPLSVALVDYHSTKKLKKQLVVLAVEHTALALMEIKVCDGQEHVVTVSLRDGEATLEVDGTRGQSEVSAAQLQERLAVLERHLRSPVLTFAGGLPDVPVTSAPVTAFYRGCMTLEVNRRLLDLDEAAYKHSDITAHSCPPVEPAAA
# procedure summary: SPR Biacore T100, captured antibody, Gas6 analyte, first test
endpoint: Kd

binder	endpoint	test value
hzKM5321 LV6HV0 antibody (antibody, V domains shown, Humanized; variant human IgG4 constant region (EU S228P, L235E, R409K), human kappa; also called B-08; LV6HV0) VH: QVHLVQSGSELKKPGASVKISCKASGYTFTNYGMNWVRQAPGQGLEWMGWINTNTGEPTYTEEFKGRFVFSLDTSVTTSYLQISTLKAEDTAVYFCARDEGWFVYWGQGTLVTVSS VL: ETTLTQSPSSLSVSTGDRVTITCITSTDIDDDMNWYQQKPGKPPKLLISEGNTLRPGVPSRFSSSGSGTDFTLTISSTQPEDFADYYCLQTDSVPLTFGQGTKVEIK	Kd	< 1.19 nM

Okay, now this binder:
stdin: State the recorded Kd for this entry: hzKM5321 LV1cHV0 antibody (antibody, V domains shown, Humanized; variant human IgG4 constant region (EU S228P, L235E, R409K), human kappa; also called B-05; LV1cHV0) VH: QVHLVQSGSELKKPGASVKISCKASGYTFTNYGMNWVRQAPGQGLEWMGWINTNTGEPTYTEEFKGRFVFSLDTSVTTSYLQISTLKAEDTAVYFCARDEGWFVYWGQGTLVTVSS VL: ETTLTQSPSSLSVSVGDRVTITCITSTDIDDDMNWYQQKPGKAPKLLISEGNTLRPGVPSRFSGSGSGTDFTLTISSLQPEDFATYYCLQTDSVPLTFGQGTKVEIK
stdout: < 4.05 nM
